- TEST SYSTEM: human α-synuclein recombinant aggregate (fibrils) (Homo sapiens)
- MEASUREMENT DESCRIPTION: Saturation and competition binding assay on α-synuclein aggregates (fibrils)
- EXPERIMENTAL CONTEXT: Table 3; read-out: Affinity Ki, α-syn
ENDPOINT NAME: Ki (nM)

Fc1ccc(-c2cc(-c3csc(-c4nc(-c5ccc6c(c5)OCO6)cs4)n3)on2)cc1 :: 6
COc1sc(-c2csc(-c3nc(-c4ccc5c(c4)OCO5)cs3)n2)cc1F :: 7

###

- TEST SYSTEM: Aβ1-42 (Homo sapiens)
- Sequence (P05067 672-713): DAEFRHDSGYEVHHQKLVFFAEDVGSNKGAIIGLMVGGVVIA
- MEASUREMENT DESCRIPTION: Competition binding assay vs [^3H]PiB on synthetic amyloid peptide aggregates (Aβ1-42)
- EXPERIMENTAL CONTEXT: Table 1; read-out: Affinity Ki, Aβ1-42
pKi: −log10 of the molar value.
ENDPOINT NAME: pKi

In the examples that follow, each entry is paired with its recorded pKi.
COc1ccc(-c2csc(-c3nc(-c4ccc5c(c4)OCO5)cs3)n2)cc1F [Compound 3] :: 6.42
CCOc1ccc(-c2csc(-c3nc(-c4ccc5c(c4)OCO5)cs3)n2)cc1 [Compound 4] :: 6.41
CN(C)c1ccc(-c2csc(-c3nc(-c4ccc(O)cc4)cs3)n2)cc1 [Compound 1] :: 8.22

A. COc1ccc(-c2csc(-c3nc(-c4ccc5c(c4)OCO5)cs3)n2)cc1O [Compound 2]
B. CCCCOc1ccc(-c2csc(-c3nc(-c4ccc(OC)c(F)c4)cs3)n2)cc1 [Compound 5]
# compare pKi for A vs B ; return the one with the smaller value Write down the label of the entry you select.
B

###

- MEASUREMENT DESCRIPTION: log P (octanol/PBS)
- Format: physicochemical
- EXPERIMENTAL CONTEXT: Table 2
ENDPOINT NAME: logP

COc1sc(-c2csc(-c3nc(-c4ccc5c(c4)OCO5)cs3)n2)cc1F [Compound 23] :: 2.9
CN(C)c1ccc(-c2csc(-c3nc(-c4ccc(OCCOCCF)cc4)cs3)n2)cc1 [Compound 13] :: 2.6
FCOc1ccc(-c2csc(-c3nc(-c4ccc5c(c4)OCO5)cs3)n2)cc1 [Compound 15] :: 2.6
